Method Notes: yeast display, Sf9 membrane polyspecificity reagent, FACS + sequencing; frameworks hold sequencing errors
Reported Property: polyreactivity (PSR sort gate)

| Sequence Code | Readout Value |
| --- | --- |
| QVQLVESGGGLVQAGCSLRLSCAASGFTYARYTMGWYRQAPGKERELVAAISSRGSSTYYADSVKGRFTISRDNAKNSVYLQMNCLKPEDTAVYYCAAPPRYGYDYWGQGTQVTVSS | high polyreactivity |
| QVQHVESGGGLVQAGGSLRLSCAPSGRIFRYNAMGWYRQAPGKERELVAVISTRGGSTFYADSVKGRFTISRDNAKNTVYFQMNSLKPEDTAVYSCAAYRRHPFGGGYWGQGTQVTVSS | high polyreactivity |

----------
Method Notes: yeast display, Sf9 membrane polyspecificity reagent, FACS + sequencing; frameworks hold sequencing errors

| Sequence Code | polyreactivity (PSR sort gate) |
| --- | --- |
| QVQLVESGGGLVQAGGSLRLSCAASGITFATYAMGWYRQAPGKERELVAAISGGGGRTYYADSLKGRFTISRDNAKNTVYLQMNSLKPEDTAVYYCATAQRSSQFYHWGQGTQVTVSS | high polyreactivity |
| QVQLVESGGGLVQAGGSLRLSCAASGSIFARNAMGWYRQAPGKERELVAVITTGGRTYYADSVKGRFTISRDNAKNTVYLQMNSLKPEDTAVYYCATRVIYGQSGGYWGQGTQVTVSS | high polyreactivity |

----------
Method Notes: yeast display, Sf9 membrane polyspecificity reagent, FACS + sequencing; frameworks hold sequencing errors
Reported Property: polyreactivity (PSR sort gate)

Consider the reported polyreactivity (PSR sort gate) for these sequences:
| Sequence Code | polyreactivity (PSR sort gate) |
| --- | --- |
| QVQLVESGGGLVQAGGSLRLSCAASGRIFNWYAMGWYRQAPGKERELVARISSGDITSYADSVKGRFTISRDNAKNTVYLQMNRLKPEDTAVYYCDARQWFLYDYWGQGTQVTVSS | low polyreactivity |
| QVHLVESGGGLVQAGGSLRLSCAASGNSLRVYAMGWYRQAPGKERELVAAISYSSVNTYYADSVKGRFTISRDNAKNTVYLQMNSLKPEETAVYYCAADYFYYRRTQYDLRGYPYYYWGQGTQVTVSS | low polyreactivity |
| QVQLVESGGGLVQAGGSLRLSCAASGSTFGPYTMGWYRQAPGKERELVATISSGGSTYYADSVKGRFTISRDNAKNTVYLQMNSLKPEDTAVYYCARDSYWEMDYWGQGTQVTVSS | low polyreactivity |
| QVQLVESGGGLVQAGGSLRLSCAASGRTFYSYAMGWYRQAPGKERELVAAISYTGASTFYADSVKGRFTISRDNAKNTVYLQMNSLKPEDTAVYYCAARKVRFGVDYWGPGTQVTVSS | high polyreactivity |

Q: Quick one: give measured polyreactivity (PSR sort gate) for `QVQLVESGGGLVQAGGSLRLSCAASGFIFRYYAMGWYRQAPGKERELVARINRSGGSTYYADSVKGRFTISRDNAKNTVYLQMNSLKPEDTAVYYCAKDRTSYYSWYGYWGQGTQVTVSS`
Result: high polyreactivity

Q: Quick one: give measured polyreactivity (PSR sort gate) for `QDQLVETGGGLVQAGGSLRLSCAASRNTFAQKAMGRSRQAPGKERELVAAITDGTSTNYADSVKGRFTISRDNAKNTVYLQMNSLKPEDKAVYYCAAESLYTLFYWGYDYWGQGTQVTVSS`
Result: low polyreactivity

Q: Quick one: give measured polyreactivity (PSR sort gate) for `QVQLQESRGGLVQAGGSLRLICAASGSISCPHVMGWYRQAPGKEREFVAAINVGANTYYADNVKGRFTISRDNAKNTVYLQKNSLKPEATAVYYCAAVYYGDIGHEYWGQGTQVTVSC`
Result: low polyreactivity

Q: Quick one: give measured polyreactivity (PSR sort gate) for `QVQLVESGGGLVQAGGSLRLSCAASGFIFGLYAMGWYRQAPGKERELVASISRRGGSTYYADSVKGRFTISRDNAKNTVYLQMNSLKPEDTAVYYCNAVGRLYLYGSWGQGTQVTVSS`
Result: high polyreactivity

Q: Quick one: give measured polyreactivity (PSR sort gate) for `QVQLVESGGGLVQAGGSLRLSCAASGITFGFYTMGWYRQAPGKERELVAAITSGGSTSYADSVKGRFTISRDNAKNTVYLQMNSLKPEDTAVYYCAADYLNPFPPYQYWKQSYDYWGQGTQVTVSS`
Result: low polyreactivity

Q: Quick one: give measured polyreactivity (PSR sort gate) for `QVQLVESGGRLVQAGGSLRLSCAASGSTVGYNALGWYRQAPGKASELVAAITSRGSTNYADSVKGRFTISRDNAKNTVYLQMNSLKPEVTAVYYCAKATSSSEYGYDYWGQGTQVTVSS`
Result: high polyreactivity

Q: Quick one: give measured polyreactivity (PSR sort gate) for `QVQLQESGGGLVQAGGSLRLSCAASGYISSWYPMGWYRQAPGKEREFVATIAPGATPYYADSVKGRFTISRDYAKNTVYLQMNSLKPEDTAVYYCAAGPENNDFYSYWGQGTQVTVSS`
Result: low polyreactivity

Values from the nanobody polyreactivity screen of Harvey et al. (2022)
